Below, each entry is listed with its recorded IC50.
Target: KDM4C (JMJD2C) (Homo sapiens, UniProt Q9H3R0)
Experiment: Histone lysine demethylase AlphaLISA assay, KDM4C
Type: biochemical
Details: read-out: KDM4C HDME Inhibition IC50

CCN(CCN(C)C)C(=O)CNCc1cc(/C=N/CCC2CCCCC2)ccn1    < 250 nM
CCN(CC)CCCCNCc1cc(/C=N/CC(CO)Cc2ccccc2)ccn1 (stereo not drawn)    < 250 nM
CN1CCCC1CCNCc1cc(/C=N/C2CC2)ccn1 (stereo not drawn)    > 2500 nM

// IC50 lookup, key: `CCN(CCN(C)C)C(=O)CN(Cc1cc(CNC(=O)C(F)(F)F)ccn1)C(=O)C(F)(F)F` > 2500 nM

Consider the compound shown here: CCN1CCCC1CNC(=O)CNCc1cc(C=O)ccn1 (stereo not drawn) What is its recorded IC50? 250 to 2500 nM

Which measured IC50 value corresponds to `CCN(CC)CCCCNCc1cc(/C=N/CC(C)(C)CO)ccn1` ? > 2500 nM

Quick one: IC50 of `CCN(CC)CCCCNCc1cc(CNC(=O)C(=O)O)ccn1` ? > 2500 nM

What value of IC50 has been recorded for this entry: CCN(CC1CCCN1C)C(=O)CNCc1cc(C=O)ccn1 (stereo not drawn) > 2500 nM

I would be grateful if you could share the reported IC50 for `CCN(CC)CCCCNCc1cc(/C=N/CC(F)(F)C(F)(F)F)ccn1` . > 2500 nM

----------
Molecular target: KDM4C (JMJD2C) (Homo sapiens)
Sequence (Q9H3R0 1-349): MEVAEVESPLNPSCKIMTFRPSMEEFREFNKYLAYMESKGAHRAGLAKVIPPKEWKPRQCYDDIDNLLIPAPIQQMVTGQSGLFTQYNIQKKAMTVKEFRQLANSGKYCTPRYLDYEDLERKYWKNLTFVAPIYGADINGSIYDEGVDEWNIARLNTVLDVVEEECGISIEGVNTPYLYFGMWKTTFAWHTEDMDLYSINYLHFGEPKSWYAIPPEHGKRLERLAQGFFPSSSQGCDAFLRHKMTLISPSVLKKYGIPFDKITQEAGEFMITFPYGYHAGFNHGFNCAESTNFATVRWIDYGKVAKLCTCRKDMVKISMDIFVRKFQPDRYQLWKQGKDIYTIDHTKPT
Assay: Histone lysine demethylase AlphaLISA assay, KDM4C
Type: biochemical
Conditions: read-out: KDM4C HDME Inhibition IC50
pIC50: −log10 of the molar value.
quantity name: pIC50

Please review the entries below; each comes with its answer.
CC1CCCCN1CCCNCc1cc(CNC2CC2)ccn1 (stereo not shown)    < 5.60
CN(Cc1ccccc1F)C(=O)CNCc1cc(/C=N/CCO)ccn1    < 5.60
CCN(CC)CCCCNCc1cc(C2NCCCN2C)ccn1 (stereo not shown)    5.60 to 6.60
CCN(CCCN(C)C)C(=O)CNCc1cc(/C=N/CCO)ccn1    < 5.60
CCN(CCN(C)C)C(=O)CNCc1cc(/C=N/CCCO)ccn1    5.60 to 6.60

Quick one: pIC50 for CN(C)C1CCC(CNCc2cc(C=O)ccn2)C1 (stereo not shown) ? 5.60 to 6.60

----------
Recorded IC50 by entry
Target: KDM5B (PLU-1) (Homo sapiens)
Test: Histone lysine demethylase AlphaLISA assay, KDM5B
Assay type: biochemical
Conditions: read-out: KDM5B HDME Inhibition IC50

CCN(CC)CCCCNCc1cc(C2NCCN2C)ccn1 (stereo not shown)    < 250 nM

Return reported IC50; argument: `CON=Cc1ccnc(CNCCCN(C)C)c1` < 250 nM

Which IC50 is listed for `CCN(CC)CCN(CC)C(=O)CNCc1cc(C=O)ccn1` ? < 250 nM

So what does the record say about IC50 for `CCN(CC)C(=O)CNCc1cc(/C=N/CCC2CCCCC2)ccn1` ? < 250 nM

Using the record for `CN(C)CCCCCNCc1cc(CN)ccn1` , report its IC50. < 250 nM

// lookup IC50 for `CCN(CCC#N)C(=O)CNCc1cc(/C=N/C2CC2)ccn1` < 250 nM

Field request: IC50 | item: `CN1CCN(C(=O)CNCc2cc(C=O)ccn2)CC1` 250 to 2500 nM

I would be grateful if you could share the reported IC50 for `CN(C)CCCCCNCc1cc(/C=N/C2CC2)ccn1` . < 250 nM

Report IC50 for `O=Cc1ccnc(CNCCCN2CCCC2)c1` please. < 250 nM

Please look up its IC50: `CN(C)CCNCc1ccnc(CNCCCN(C)Cc2ccccc2)c1` 250 to 2500 nM

----------
# key: entry, value: IC50
Biological target: KDM5B (PLU-1) (Homo sapiens, UniProt Q9UGL1)
Sequence (Q9UGL1 1-809): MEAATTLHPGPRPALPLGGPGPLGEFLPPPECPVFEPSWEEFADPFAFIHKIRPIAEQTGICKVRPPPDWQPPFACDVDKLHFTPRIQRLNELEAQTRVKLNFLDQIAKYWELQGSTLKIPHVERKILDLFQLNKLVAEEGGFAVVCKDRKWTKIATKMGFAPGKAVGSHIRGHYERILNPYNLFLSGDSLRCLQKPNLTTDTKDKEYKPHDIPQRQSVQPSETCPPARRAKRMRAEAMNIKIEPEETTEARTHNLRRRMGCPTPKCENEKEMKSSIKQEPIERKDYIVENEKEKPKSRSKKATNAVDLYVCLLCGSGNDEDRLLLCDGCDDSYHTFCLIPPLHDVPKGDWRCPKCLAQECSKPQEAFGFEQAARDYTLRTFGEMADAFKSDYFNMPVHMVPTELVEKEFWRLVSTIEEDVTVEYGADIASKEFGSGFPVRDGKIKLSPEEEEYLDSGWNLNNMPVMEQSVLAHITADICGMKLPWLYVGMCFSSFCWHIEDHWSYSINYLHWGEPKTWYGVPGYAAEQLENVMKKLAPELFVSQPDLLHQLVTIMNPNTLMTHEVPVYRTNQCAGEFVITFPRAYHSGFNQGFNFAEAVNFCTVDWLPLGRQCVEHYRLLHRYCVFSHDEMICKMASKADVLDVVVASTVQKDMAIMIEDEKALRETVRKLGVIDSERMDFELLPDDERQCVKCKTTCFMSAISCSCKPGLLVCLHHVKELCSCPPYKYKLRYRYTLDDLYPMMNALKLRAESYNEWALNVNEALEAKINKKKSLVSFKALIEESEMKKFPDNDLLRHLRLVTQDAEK
Test: Histone lysine demethylase AlphaLISA assay, KDM5B
Format: biochemical
Details: read-out: KDM5B HDME Inhibition IC50

Below: 8 compounds and their reported IC50.
c1ccc(CN2CCC[C@H]2CNCc2cc(CNCC3CC3)ccn2)cc1 [Compound 16]    250 to 2500 nM
CCN(CC)CCCCNCc1cc(C=O)ccn1 [Compound 107]    < 250 nM
OCC/N=C/c1ccnc(CNCCc2ccccc2OCc2ccccc2)c1 [Compound 93]    > 2500 nM
CN(C)CCNCc1cc(C=O)ccn1 [Compound 110]    250 to 2500 nM
CCN(CC)CCCCNCc1cc(CN)ccn1 [Compound 5]    > 2500 nM
CC(C#N)NCc1ccnc(CNCCCN(C)C)c1 (centres unmarked) [Compound 22]    250 to 2500 nM
O=Cc1ccnc(CNCCCCN(Cc2ccccc2)C2CC2)c1 [Compound 109]    < 250 nM
O=C(CNCc1cc(/C=N/C2CC2)ccn1)N1CCC[C@@H]1CN1CCCC1 [Compound 49]    < 250 nM

Which value of IC50 has been reported for COc1ccccc1CN1CCC(NC(=O)CNCc2cc(CN)ccn2)CC1 [Compound 9] in the records? 250 to 2500 nM

Look up IC50: CN(C)CCNCc1ccnc(CNCC(=O)N(C)C)c1 [Compound 15] < 250 nM

# input compound: CCN(CC)CCCCNCc1cc(C=NCC(C)O)ccn1 (centres unmarked) [Compound 74] ; wanted: its IC50 < 250 nM

Tell me the measured IC50 of CCN(CCN(C)C)C(=O)CNCc1cc(/C=N/CCC2CCCCC2)ccn1 [Compound 63] , please. < 250 nM

Look at this compound and give its reported IC50. CCN(CC)CCCCNCc1cc(/C=N/CCO)ccn1 [Compound 61] < 250 nM

Return reported IC50; argument: CCN(CCN(C)C)C(=O)CNCc1cc(/C=N/CC(O)CN(C)C)ccn1 (centres unmarked) [Compound 86] < 250 nM

----------
Tested on: MCF7 cells
Assay: Cell proliferation assay MCF7
Type: cell-based
Details: MCF7 human breast cancer cells; 120 hours; ATPlite 1 Step
pEC50: −log10 of the molar value.
quantity name: pEC50

CCN(CC)CCCCNCc1cc(CNC(=O)C(=O)OC(C)(C)C)ccn1    5.60 to 6.60

Name the recorded pEC50 for `CCOC(=O)c1ccccc1OC(=O)NCc1ccnc(CNCC(=O)N(CC)CCN(C)C)c1` . 5.60 to 6.60

Recorded pEC50 for `CCN(CC)C(=O)CNCc1cc(/C=N/CCc2ccc(C)cc2)ccn1` , please? < 5.60

Look up pEC50: `OCC/N=C/c1ccnc(CNCCc2ccccc2OCc2ccccc2)c1` < 5.60

I am curious: what pEC50 value has been reported for CCN(CCN(C)C)C(=O)CNCc1cc(/C=N/CC(O)CN(C)C)ccn1 (centres unmarked) ? > 6.60

So what does the record say about pEC50 for CN1CCCC1CCNCc1cc(/C=N/C2CC2)ccn1 (centres unmarked) ? 5.60 to 6.60

Which measured pEC50 value corresponds to `CCN(CC)C(=O)CNCc1cc(/C=N/CCC2CCCCC2)ccn1` ? < 5.60

----------
Target: UniProt:O75164
Sequence (O75164 1-350): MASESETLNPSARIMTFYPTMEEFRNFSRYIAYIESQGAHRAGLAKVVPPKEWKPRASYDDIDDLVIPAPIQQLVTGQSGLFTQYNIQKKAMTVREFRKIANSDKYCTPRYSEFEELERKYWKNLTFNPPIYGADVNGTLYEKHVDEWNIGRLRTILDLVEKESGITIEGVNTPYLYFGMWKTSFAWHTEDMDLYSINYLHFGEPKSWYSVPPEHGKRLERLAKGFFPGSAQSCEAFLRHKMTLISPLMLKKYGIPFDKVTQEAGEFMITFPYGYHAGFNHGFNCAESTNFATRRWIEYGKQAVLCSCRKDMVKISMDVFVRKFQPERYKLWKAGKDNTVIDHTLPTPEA
# IC50 listing for each entry below

A selection of reference data follows.
CN(C)CC1CCC(CNCc2cc(C=O)ccn2)CC1 (stereo not shown) [Compound 97]    > 2.5 µM
O=C(CNCc1cc(/C=N/C2CC2)ccn1)N1CCC(Cc2ccccc2)CC1 [Compound 55]    0.25 to 2.5 µM
O=Cc1ccnc(CNCC(=O)N2CCC[C@@H]2CN2CCCC2)c1 [Compound 102]    > 2.5 µM

Next compound, please.
Entry CCN(CC)CCCCNC(=O)CNCc1cc(/C=N/C2CC2)ccn1 [Compound 48] , system UniProt:O75164: what IC50 was measured? < 0.25 µM

----------
Biological target: KDM7 (PHF8) (Homo sapiens)
Construct: KDM7 (PHF8); BRIC; 1-1322; Bac
Sequence (Q9UPP1 37-440 limits assumed): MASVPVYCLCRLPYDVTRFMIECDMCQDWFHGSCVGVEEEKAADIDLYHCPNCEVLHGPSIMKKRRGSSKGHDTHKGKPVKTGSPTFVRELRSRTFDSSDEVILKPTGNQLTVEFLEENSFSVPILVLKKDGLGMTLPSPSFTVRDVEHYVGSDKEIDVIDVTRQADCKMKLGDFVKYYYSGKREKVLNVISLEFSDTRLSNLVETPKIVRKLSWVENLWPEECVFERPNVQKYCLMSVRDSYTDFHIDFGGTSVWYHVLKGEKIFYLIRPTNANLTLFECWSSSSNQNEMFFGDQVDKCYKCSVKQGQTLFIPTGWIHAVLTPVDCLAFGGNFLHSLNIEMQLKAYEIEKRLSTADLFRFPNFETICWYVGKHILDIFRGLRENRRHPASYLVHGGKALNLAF
Experiment: Histone lysine demethylase AlphaLISA assay, KDM7
Assay type: biochemical
Conditions: read-out: PHF8 HDME Inhibition IC50
quantity name: IC50

Consider the reported IC50 for these compounds:
CCN(CC)C(=O)CNCc1cc(/C=N/CCC2CCCCC2)ccn1    > 2500 nM
COC(=O)CNCc1cc(/C=N/C2CC2)ccn1    250 to 2500 nM
CCN(CC)CCCCN(Cc1cc(C=O)ccn1)C(=O)C(F)(F)F    250 to 2500 nM
C(=N\C1CC1)/c1ccnc(CNCCCCN2CCC2)c1    > 2500 nM
CN(C)C(=O)CNCc1cc(/C=N/CCC2CCCCC2)ccn1    250 to 2500 nM

Recorded IC50 of `CN1CCC(CNCc2cc(C=O)ccn2)CC1` , please. > 2500 nM

May I ask what IC50 has been recorded for `C(=N/C1CC1)/c1ccnc(CNCCCN2CCCC2)c1` ? > 2500 nM

Could you tell me which IC50 is on file for `CNCc1ccnc(CNCCCN(C)Cc2ccccc2)c1` ? > 2500 nM

# IC50 lookup, item `CN1CCN(C(=O)CNCc2cc(/C=N/C3CC3)ccn2)CC1` > 2500 nM

Please look up its IC50: `CN(C)CCCCNCc1cc(CN)ccn1` > 2500 nM
